assay: Dose normalized AUC in Beagle dog at 0.2 to 1 mg/kg, po measured up to 24 hrs by HPLC-MS-MS analysis; format: ADME, organism-based, Canis lupus familiaris; details: in vivo
measured.endpoint: AUC/dose (kg·h/L)

A selection of reference data follows.
smiles.structure: C=C(c1ccc(OC)c(F)c1)c1cc(NCCC(F)(F)F)c2ncc(-c3ccc(C(=O)NC4CC4)c(C)c3)n2n1
unit.abbreviation: kg·h/L
AUC/dose: 0.005

smiles.structure: COc1cc(C(=O)N2CC(F)C2)ccc1Nc1nc2ccc(-c3ccc(NC(=O)[C@H](C)c4ccc(F)cc4)cc3)cn2n1
unit.abbreviation: kg·h/L
AUC/dose: 0.64

I: COc1cc(S(C)(=O)=O)ccc1Nc1nc2ccc(-c3ccc(NC(=O)[C@H](C)c4ccc(F)cc4)cc3)cn2n1
II: Cc1cc(-c2cnc3c(NCCC(F)(F)F)cc(C4(c5cc(F)ccc5O)CC4)nn23)ccc1C(=O)NC1CC1
III: COc1ccc(Oc2cc(NCCC(F)(F)F)c3ncc(-c4ccc(C(=O)NC5CC5)c(C)c4)n3n2)c(F)c1F
Give the ascending ranking of the items by reported AUC/dose. List each label, following the requested order.
I, II, III
(I: 0.52 kg·h/L, II: 1.1 kg·h/L, III: 2.5 kg·h/L)
